molecular target: T1, biotinylated p53β peptide (human, also: biotinylated, site not given here); experiment: peptide-binding assay: peptide spots on membrane, biotinylated p53β peptide, streptavidin-HRP;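 note: Membrane-bound synthesized peptide spots exposed to the biotinylated p53 aggregation-prone peptide, bound material revealed via streptavidin-HRP and chemiluminescence, spot signal reflecting binding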
T1 construct: also called biotinylated p53-aggregating peptide
T1 peptide: ILTIITL
Where no end group is shown, it is not given here.

- binder: "IYTGITL (spot-synthesized on membrane; also called position Nr 14) [VATA_HUMAN peptide IYTGITL]"
  Binding intensity (normalized): "32.1 normalized"
- binder: "ILTSQTL (spot-synthesized on membrane; also called position Nr 20) [DIP2B_HUMAN peptide ILTSQTL]"
  Binding intensity (normalized): "2.39 normalized"
- binder: "CLTIITG (spot-synthesized on membrane; also called position Nr 26) [TRI18_HUMAN peptide CLTIITG]"
  Binding intensity (normalized): "3.67 normalized"
- binder: "ILDIITS (spot-synthesized on membrane; also called annexin-6 peptide fragment; position Nr 29) [ANXA6_HUMAN peptide ILDIITS]"
  Binding intensity (normalized): "78.9 normalized"
- binder: "ILTITTP (spot-synthesized on membrane; also called position Nr 39) [CBPC3_HUMAN peptide ILTITTP]"
  Binding intensity (normalized): "19.6 normalized"
- binder: "ILVIITR (spot-synthesized on membrane; also called position Nr 48) [LONF2_HUMAN peptide ILVIITR]"
  Binding intensity (normalized): "6.81 normalized"
- binder: "ALTFITL (spot-synthesized on membrane; also called position Nr 7) [BN3D2_HUMAN peptide ALTFITL]"
  Binding intensity (normalized): "6.47 normalized"
- binder: "IKSIITL (spot-synthesized on membrane; also called position Nr 45) [CT132_HUMAN peptide IKSIITL]"
  Binding intensity (normalized): "4.39 normalized"

Attribution: patent US20140170239A1
